TEST PROTOCOL: protein stability index of a GFP-peptide fusion (GPS, HEK-293T) (PSI 1-6); higher = more stable;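 note: 24-mer peptide tiles fused after GFP, lentivirally expressed, FACS-sorted into six equal bins by GFP/DsRed ratio, decoded by Illumina sequencing, PSI is the read-weighted mean bin number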
TEST SETTINGS: treatment: DMSO; c terminus: a fixed tail appended
REPORTED METRIC: protein stability index

sequence="FLGSTEVEQPKGTEVVRDAVRKLK [GULP1]" numeric_result=4.62
sequence="AEVSVISEADPQALLQAMKDLDGM [FBF1]" numeric_result=4.52
sequence="VVKRREGPAGHSKGELAPELGEEP [POLD4]" numeric_result=5.46
sequence="WASTSPGTDLPLSEIPRGVRVALD [TRIM15]" numeric_result=3.91
sequence="EDLQDGDVRMGGSFRGAFSNSEKA [NET1]" numeric_result=4.98
sequence="QARLEEQQRLAHLEDKLRLLAQAR [LRRC45]" numeric_result=3.37
sequence="SEDSFCRRHPGLGKAFPSGCSAVS [TRAF3IP2]" numeric_result=3.66
sequence="LQIYQYVPKDQRLQAIKAAIMLLP [DLC1]" numeric_result=2.64
sequence="QGEQLEVPERLLVVLDMEEGTLGY [SPSB2]" numeric_result=2.86
